tested on: Vero E6 infected with SARS-CoV-2; assay: inhibition of SARS-CoV-2 cytopathic effect; higher = more antiviral protection, active = above 15; details: 8.33 nM; 48 h
I'd appreciate it if you could supply inhibition of SARS-CoV-2 cytopathic effect values for the items below.
One number for each entry, in %.

Field: example entries. Status: answers known.
CC1(COc2ccc(CC3SC(=O)NC3=O)cc2)CCCCC1 (configuration not stated) [ciglitazone]; -3.35
N#C[C@@H]1C[C@@H]2C[C@@H]2N1C(=O)[C@@H](N)C12CC3CC(CC(O)(C3)C1)C2; -0.66
CC[N+](CC)(CC)CC(=O)Nc1c(C)cccc1C; -2.04
CCc1ccc(C(=O)C(C)CN2CCCCC2)cc1 (configuration not stated) [eperisone]; 2.24
CC(C)(CCCCCC(O)CCCCCC(C)(C)C(=O)O)C(=O)O [bempedoic-acid]; 0.43

Batch lookup, inhibition of SARS-CoV-2 cytopathic effect per entry.
1. C[C@H](Nc1ncnc2[nH]cnc12)c1cc2ccc(F)cc2nc1-c1ccccn1
2. CC(=O)[O-].CC(=O)[O-].N.NC1CCCCC1.[Cl-].[Cl-].[Pt+4] [satraplatin]

a:
1: 4.37; 2: -0.13

====

tested on: Vero E6 infected with SARS-CoV-2; assay: inhibition of SARS-CoV-2 cytopathic effect; higher = more antiviral protection, active = above 15; details: 833.33 nM; 48 h
I'd appreciate it if you could supply inhibition of SARS-CoV-2 cytopathic effect values for the items below.
One number for each entry, in %.

Field: example entries. Status: answers known.
CCOC(=O)[N-]c1c[n+](N2CCOCC2)no1 [molsidomine]; 1.58
O=C(O)Cc1ccc2c(c1)C(=O)c1ccccc1CO2 [isoxepac]; -4.01
O=C(O)c1ccc(O)c2ncccc12; 3.02
CCC1(C)CC(=O)NC(=O)C1 [bemegride]; 1.29
O=C(O)C(Cl)Cl [dichloroacetate]; 0.22
OC[C@H]1O[C@H]([S-])[C@H](O)[C@@H](O)[C@@H]1O.[Au+] [aurothioglucose]; 0.93
Cc1nc(N)sc1CCN [amthamine]; 0.97
CCOP(=S)(OCC)Oc1ccc2c(C)c(Cl)c(=O)oc2c1 [coumophos]; -2.21

Batch lookup, inhibition of SARS-CoV-2 cytopathic effect per entry.
1. CCOC(=O)Nc1cc2c(c(N)n1)N=C(c1ccccc1)[C@H](C)N2 [mivobulin]
2. NC(N)=Nc1nc(CSCC/C(N)=N/S(N)(=O)=O)cs1 [famotidine]
3. CCN1CCN(Cc2ccc(C(=O)Nc3ccc(C)c(Oc4ccc5c(c4)CC(=O)N5)c3)cc2C(F)(F)F)CC1
4. CC(=O)O[C@]1(C(C)=O)CC[C@H]2[C@@H]3CCC4=CC(=O)CC[C@]4(C)[C@H]3CC[C@@]21C [hydroxyprogesterone-acetate]
5. Clc1ccc(C(c2ccc(Cl)cc2)C(Cl)(Cl)Cl)cc1
6. COc1ccc(COc2ccc(Cc3cnc(N)nc3N)cc2OC)cc1
7. COc1cc(Nc2ncc(F)c(Nc3ccc4c(n3)NC(=O)C(C)(C)O4)n2)cc(OC)c1OC

a:
[1.06, 4.59, 3.18, 0.45, -1.73, 0.11, -4.61]

Batch lookup, inhibition of SARS-CoV-2 cytopathic effect per entry.
1. CCN(CC)CC(=O)Nc1c(C)cccc1C [lidocaine]
2. COc1cc2c(cc1OCCCN1CCCC1)N=C(N)C21CCC1
3. CC(=O)NCC(=O)N[C@H](CCC(=O)O)C(=O)O [N-acetylglycyl-D-glutamic-acid]
4. O=C(O)CCCO
5. CN(C)C(=O)c1cc2cnc(Nc3ccc(N4CCNCC4)cn3)nc2n1C1CCCC1 [ribociclib]
6. Nc1ncnc2c1ncn2[C@@H]1O[C@@H]2COP(=O)(O)O[C@H]2[C@H]1O [cyclic-AMP]

a:
[1.31, 1.84, -0.04, 1.83, -3.73, -5.14]

Batch lookup, inhibition of SARS-CoV-2 cytopathic effect per entry.
1. CN(C)CCn1cc(S(=O)(=O)c2cccc(F)c2)c2cccnc21
2. C[C@@H]1C[C@H]2[C@@H]3CCC4=CC(=O)C=C[C@]4(C)[C@@]3(F)[C@@H](O)C[C@]2(C)[C@H]1C(=O)CO [desoximetasone]
3. CC/C(=C(/CC)c1ccc(O)cc1)c1ccc(O)cc1 [diethylstilbestrol]

a:
-1.84
1.96
3.59

Values were extracted from the supplement of paper PMC13380429.
